# ASSAY METHOD TEXT: Administration of 2 times 15 mg of efletirizine in solution with a 12-hour interval
# Format: in vivo, healthy volunteers
# STATED CONDITIONS: human, plasma, oral, 2 times 15 mg in solution
RECORDED ENDPOINT: AUC (ng·h/mL)

[[record]]
compound = "O=C(O)COCCN1CCN(C(c2ccc(F)cc2)c2ccc(F)cc2)CC1 [efletirizine]"
recorded_endpoint = "AUC"
readout_value = 2800


###

# ASSAY METHOD TEXT: Administration of 60 mg IR efletirizine gelatin capsule: influence of a meal
# Type: in vivo, patients
# STATED CONDITIONS: human, in vivo, oral, 60 mg, 60 mg gelatin capsule; fasting
RECORDED ENDPOINT: Tmax (min)

[[record]]
compound = "O=C(O)COCCN1CCN(C(c2ccc(F)cc2)c2ccc(F)cc2)CC1 [efletirizine]"
readout_value = 46.2

